test: Moisture absorption test (hygroscopic properties) of test carriers
Type: physicochemical
setup-conditions: Table 2; 25° C., Humidity 75%; 24 Hours
Peptide text beside a SMILES is read from it.
property-measured: % Moisture Absorption (%)

Observe how each entry below is paired with its result.
compound | readout-unit | % Moisture Absorption
OC[C@@H](O)[C@@H](O)[C@H](O)[C@H](O)CO [D-Mannitol] | % | 0.019
COC(=O)[C@H](Cc1ccccc1)NC(=O)[C@@H](N)CC(=O)O [Aspartame] (H-Asp-Phe-OMe) | % | 6.539
OC[C@@H](O)[C@H](O)[C@@H](O)CO [Xylitol] | % | 0.087

[I] OC[C@@H](O)[C@@H](O[C@H]1O[C@H](CO)[C@@H](O)[C@H](O)[C@H]1O)[C@H](O)[C@@H](O)CO [Amalty]
[II] OC[C@@H](O)[C@@H](O)CO [Erythritol]
Incoming: Please state the entry with greater % Moisture Absorption among I and II . I would appreciate it if you answered with the label of your choice.
Outgoing: I
(I: 0.478%, II: 0.008%)

---

test: Moisture absorption test (hygroscopic properties) of test carriers
Assay type: physicochemical
setup-conditions: Table 2; 25° C., Humidity 75%; 48 Hours
Protocol: For the objective of selecting a material suitable as the carrier for a dry powder inhalation, moisture absorption tests were performed on erythritol, xylitol, lactose, D-mannitol, Amalty, glucose, Stevia, Benecoat and aspartame. […] (Tables 1, 2, and 3) In order to ascertain that trehalose is a material having properties suitable as a carrier for dry powder inhalations, it was compared to lactose, a well-known carrier for dry powder inhalation. A test was carried out for comparing hygroscopicity. […]
Peptide text beside a SMILES is read from it.
property-measured: % Moisture Absorption (%)

compound | % Moisture Absorption (%)
OC[C@@H](O)[C@H](O)[C@@H](O)CO | 0.104
OC[C@@H](O)[C@@H](O[C@H]1O[C@H](CO)[C@@H](O)[C@H](O)[C@H]1O)[C@H](O)[C@@H](O)CO | 1.138
OC[C@@H](O)[C@@H](O)[C@H](O)[C@H](O)CO | 0.019

[I] OC[C@@H](O)[C@@H](O)CO
[II] COC(=O)[C@H](Cc1ccccc1)NC(=O)[C@@H](N)CC(=O)O [Aspartame] (H-Asp-Phe-OMe)
Incoming: Returns: the argument ( I or II ) having the larger % Moisture Absorption. State the label of the item chosen.
Outgoing: II
(II: 10.877%, I: 0.011%)

---

test: Moisture absorption test (hygroscopic properties) of test carriers
Type: physicochemical
setup-conditions: Table 2; 25° C., Humidity 75%; 168 Hours
Peptide text beside a SMILES is read from it.
property-measured: % Moisture Absorption (%)

compound | % Moisture Absorption, %
OC[C@@H](O)[C@H](O)[C@@H](O)CO [Xylitol] | 0.124
OC[C@@H](O)[C@@H](O)[C@H](O)[C@H](O)CO [D-Mannitol] | 0.028

[P] OC[C@H]1O[C@@H](O[C@H]2[C@H](O)[C@@H](O)C(O)O[C@@H]2CO)[C@H](O)[C@@H](O)[C@H]1O (stereo partly drawn) [Lactose 325M, Lactose]
[Q] COC(=O)[C@H](Cc1ccccc1)NC(=O)[C@@H](N)CC(=O)O [Aspartame] (H-Asp-Phe-OMe)
[R] OC[C@@H](O)[C@@H](O)CO [Erythritol]
[S] OC[C@@H](O)[C@@H](O[C@H]1O[C@H](CO)[C@@H](O)[C@H](O)[C@H]1O)[C@H](O)[C@@H](O)CO [Amalty]
Incoming: Please list these in order of increasing % Moisture Absorption. Thank you! Rank them, then answer with their labels in that order.
Outgoing: R, P, S, Q
(R: 0.010%, P: 0.033%, S: 1.252%, Q: 11.163%)
